Target: human GPR17 short isoform (Homo sapiens (Human))
Sequence (Q13304 29-367): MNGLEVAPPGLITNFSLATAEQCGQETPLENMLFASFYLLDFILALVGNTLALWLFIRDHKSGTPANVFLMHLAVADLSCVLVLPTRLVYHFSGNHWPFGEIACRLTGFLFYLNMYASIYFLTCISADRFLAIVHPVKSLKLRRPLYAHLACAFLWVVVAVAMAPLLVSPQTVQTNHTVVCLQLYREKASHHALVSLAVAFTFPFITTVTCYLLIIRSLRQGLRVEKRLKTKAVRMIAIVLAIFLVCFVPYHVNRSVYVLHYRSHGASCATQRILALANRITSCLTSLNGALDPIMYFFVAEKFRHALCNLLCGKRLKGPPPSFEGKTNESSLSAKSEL
Experiment: GPR17 cAMP assay (hGPR17 cAMP, antagonist mode against EC80 of MDL29,951)
Details: CHO-K1 cells stably expressing human GPR17 short isoform; EC80 of agonist MDL29,951; forskolin 15 μM
From the text: GPR17 cAMP Assay Protocol: […] Changes in intracellular cyclic adenosine monophosphate (cAMP) levels were quantified using the Nano-TRF Detection Assay kit (Roche Diagnostics, Cat. No. 05214386001). This assay allows for direct cAMP quantification in a homogeneous solution, cAMP is detected based on time-resolved fluorescence energy transfer (TR-FRET) and competitive binding of ruthenylated cAMP and endogenous cAMP to an anti-cAMP monoclonal antibody labeled with AlexaFluor-700. […]
REPORTED_METRIC: IC50 (nM)

Completed entries (count: 8):
| COMPOUND | REPORTED_METRIC | READOUT_NUMBER |
| --- | --- | --- |
| COc1nc(NS(=O)(=O)c2c[nH]c3cc(Cl)ccc23)ncc1OCCOC(F)F | IC50 | 218 |
| COc1nc(NS(=O)(=O)c2c[nH]c3cc(Cl)ccc23)ncc1CC(F)(F)C(F)F | IC50 | 91 |
| COc1nc(NS(=O)(=O)c2c[nH]c3cc(Cl)ccc23)nc(C2CC2)c1CC(F)F | IC50 | 128 |
| COc1nc(NS(=O)(=O)c2csc3cc(Cl)ccc23)ncc1CC(F)F | IC50 | 45 |
| O=S(=O)(Nc1ncc(OCC(F)F)cn1)c1c[nH]c2cc(Cl)ccc12 | IC50 | 924 |
| COc1nc(NS(=O)(=O)c2c[nH]c3c([S+](C)[O-])c(Cl)ccc23)ncc1CC(F)F (centres unmarked) | IC50 | 136 |
| COc1nc(NS(=O)(=O)c2c[nH]c3nc(Cl)ccc23)nc(OC)c1OC(F)F | IC50 | 49 |
| COc1nc(NS(=O)(=O)c2c[nH]c3cc(Cl)ccc23)ncc1COC(F)F | IC50 | 40 |

a = COc1nc(NS(=O)(=O)c2c[nH]c3cc(OC(F)F)ccc23)ncc1CC(F)F
b = COc1nc(NS(=O)(=O)c2c[nH]c3c(F)c(Br)ccc23)ncc1CCC#N
c = COc1nc(NS(=O)(=O)c2c[nH]c3cc(Cl)ccc23)ncc1CCCF
Number of compounds to sort: 3. Sort criterion: IC50, ascending. Respond with the label ranking, as requested.
c, b, a

1 = COc1nc(NS(=O)(=O)c2csc3cc(Br)ccc23)ncc1OCCF
2 = COc1nc(NS(=O)(=O)c2c[nH]c3cc(Cl)ccc23)nc(OC)c1OCC#N
3 = COC(=O)c1c(C)ccc2c(S(=O)(=O)Nc3ncc(CC(F)F)c(OC)n3)c[nH]c12
4 = COc1nc(NS(=O)(=O)c2c[nH]c3cc(Cl)ccc23)nc(OC)c1OCC1COC1
Ranking field: IC50; order: falling. Returns: the labels listed in the requested order.
4, 3, 1, 2
(4: 2060 nM, 3: 842 nM, 1: 47 nM, 2: 14 nM)

1 = COc1nc(NS(=O)(=O)c2c[nH]c3c(CO)c(C)ccc23)ncc1CC(F)F
2 = COc1nc(NS(=O)(=O)c2csc3nc(Br)ccc23)ncc1OCCF
Of 1 and 2 , whose reported IC50 is numerically smaller? Give the label under which the chosen entry appears.
2
(2: 89 nM, 1: 433 nM)
